# MEASUREMENT_PROTOCOL: NCI Yeast Anticancer Drug Screen. Data for the rad52 strain (AID 147);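 note: 0% = growth of vehicle-treated control cultures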
# RECORDED_CONDITIONS: S. cerevisiae rad52 mutant growth inhibition; at 100.0 µM; stronger effect = higher value
# Protocol: Growth inhibition of yeast strains with defined genetic alterations is measured as a screen for potential anti-cancer activity. Selected strains with alterations in DNA damage repair or cell cycle control were exposed to compounds and growth inhibition was measured relative to vehicle treated controls. The strain used in this assay is rad52
Compounds without any hit were thinned out: in the full panel of roughly 79,000, 15% have a hit.
RECORDED_ENDPOINT: growth inhibition (%)
One number for each entry, in %.

COMPOUND: C/C1=C/C2OC(=O)C3(C)C2C(CC2(C)OC1=CC2=O)OC3(O)C(C)C (stereo not given)
growth inhibition, %: -39

Dear reader, for each entry below, please note its growth inhibition.
1. CCC[CH2][Ge]([CH2]CCC)([CH2]CCC)[O]C(=O)C(O)c1ccccc1 (stereo not given)
2. O=C1C(/C=C/c2ccc(Cl)cc2)=NNC2N1N=C1NC(=O)C3(NN12)c1ccccc1-c1ccccc13 (stereo not given)
3. O=C(c1ccccc1)[C@H]1Nc2ccc(Cl)cc2[C@H]2OCCC[C@@H]12
4. O=C1C(=C2CCCC2)CCC1CN1CCCCC1 (stereo not given)
5. O=C(Cc1ccccc1)NN1C(=O)C(Cl)C1c1cc(Br)cc(Br)c1O (stereo not given)
6. N#C/C(=C\NC(=S)Nc1ccc(S(N)(=O)=O)cc1)C(=O)c1ccc2ccccc2c1
7. NC(N)=NS(=O)(=O)c1ccc(Nc2c3ccccc3nc3c(C(=O)NC(CO)(CO)CO)cccc23)cc1
8. CCN(CC)C(=S)N/N=C(\C)c1ccccc1O

1: 98; 2: 10; 3: 86; 4: 96; 5: 88; 6: 3; 7: 91; 8: 99

Entry CCCCCCCCCCCCOCCOCCOCC(N)=O ; growth inhibition = 96

---

Field: growth inhibition. Provide a value for each of the compounds that follow.
# MEASUREMENT_PROTOCOL: NCI Yeast Anticancer Drug Screen. Data for the rad18 strain (AID 177)
# RECORDED_CONDITIONS: S. cerevisiae rad18 mutant growth inhibition; at 33.0 µM; stronger effect = higher value
About 79,000 compounds went through this panel and 15% of them were active in at least one assay; those are over-represented in the sample as a whole.
One number for each entry, in %.

Examples with their reported growth inhibition follow.
COMPOUND: COc1cccc(C(NC2=NCCC=N2)c2cc3c(cc2O)OCO3)c1O (stereo unspecified)
UNITS: %
growth inhibition: 23
//
COMPOUND: CC(=O)N1C=Cc2c(c(C)c3c([nH]c4ccccc43)c2C)C1
UNITS: %
growth inhibition: 96
//
COMPOUND: O=S1(=O)CCC2=CC(C(F)(F)F)=CC(C(F)(F)F)=CN21
UNITS: %
growth inhibition: 90

Dear reader, for each entry below, please note its growth inhibition.
1. CN(C)CC(CN(C)C)C(=O)/C=C/c1ccc(Cl)cc1Cl
2. CCCCCCCCCC(=O)N(CCC)CCC
3. Cc1ccc([N+](=O)[O-])c2c(NCCC[N+](C)(C)[O-])c3ccccc3nc12

1: 98; 2: 68; 3: 94

---

# MEASUREMENT_PROTOCOL: NCI Yeast Anticancer Drug Screen. Data for the rad52 strain (AID 147);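 note: 0% = growth of vehicle-treated control cultures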
# RECORDED_CONDITIONS: S. cerevisiae rad52 mutant growth inhibition; at 3.7 µM
This is part of a sample that, as a whole, favours compounds with a hit. Of some 79,000 tested, about 15% had one in any assay. Active and inactive are the calls of the source. No stated cut-off is given here; in the data, active means growth inhibition above about 70%; inactive means the rest.
Please reply with one of these outcomes: YES for active, NO for inactive

Completed entries (count: 2):
COMPOUND: CCOC(=O)CC1(C)/C(=N\Nc2ccc([N+](=O)[O-])cc2[N+](=O)[O-])CCC2C1CCC1(C)C(C(C)CCCC(C)C)CCC21 (stereo not drawn)
QUALITATIVE_LABEL: NO

COMPOUND: CCCCN(CCC#N)c1ccc(/C=C/c2ccnc3ccccc23)cc1
QUALITATIVE_LABEL: NO

Write down the call the test reported for this compound. Item: CC(C)C(=O)CC(Sc1ccc(N)cc1)c1ccccc1 (stereo not drawn)
NO

Write down the call the test reported for this compound. Item: COC(=O)C1=C(C(=O)OC)CC(n2nnc(C(=O)OC)c2C(=O)OC)=CC1
NO

---

# MEASUREMENT_PROTOCOL: NCI Yeast Anticancer Drug Screen. Data for the sgs1 mgt1 strain (AID 161);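 note: 0% = growth of cultures given vehicle only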
# RECORDED_CONDITIONS: S. cerevisiae sgs1 mgt1 strain, at 50.0 µM (retest, dose inferred, filed as 5.0), stronger effect = higher value
This is part of a sample that, as a whole, favours compounds with a hit. Of some 79,000 tested, about 15% had one in any assay.
RECORDED_ENDPOINT: growth inhibition (%)
Give bare numbers, in %.

Examples with their reported growth inhibition follow.
MOLECULE: CCN(CC)CCNc1ccc(C)c2sc3ccc(O)cc3c(=O)c12
growth inhibition [%]: 99
//
MOLECULE: N#CC1OB(O)c2ccccc21 (stereo not given)
growth inhibition [%]: -2
//
MOLECULE: Cc1oc2ccccc2c(=O)c1Cn1nnc2ccccc21
growth inhibition [%]: 22
//
MOLECULE: COc1cc(C(=O)C=O)cc(OC)c1OC
growth inhibition [%]: 60
//
MOLECULE: CCN(CC)C(=S)SC(=S)N(CC)CC
growth inhibition [%]: 87
//
MOLECULE: O=C(O)c1c2ccc(Cl)cc2nc2[nH]c(=O)[nH]c(=O)c12
growth inhibition [%]: 26
//
MOLECULE: CNCC(C)CNC
growth inhibition [%]: 25
//
MOLECULE: CCCCCCC1OCC(O)C(OCCCC)O1 (stereo not given)
growth inhibition [%]: 16
//
MOLECULE: COc1ccccc1/C=C\C(=O)C1COCN1 (stereo not given)
growth inhibition [%]: 75
//
MOLECULE: CC1(c2ccccc2)O[C@@H]2C[C@H]3[C@@H]4CCC5=CC(=O)C=C[C@]5(C)[C@@]4(F)[C@@H](O)C[C@]3(C)[C@]2(C(=O)CO)O1 (stereo not given in full)
growth inhibition [%]: 33

Dear reader, for each entry below, please note its growth inhibition.
1. Nc1ccc2cc(Br)ccc2c1Br
2. O=C(/N=N/C(=O)Oc1ccccc1)Oc1ccccc1
3. CCCCCCCN1C(=O)c2ccccc2C1=O
4. CCC(C)COC(=O)Nc1cccc(Cl)c1 (stereo not given)
5. CCCCCc1c(CCCC)c(=O)[nH]c2cc(CNCC(OC)OC)ccc12

14
39
19
53
46

---

# MEASUREMENT_PROTOCOL: NCI Yeast Anticancer Drug Screen. Data for the CLN2oe strain (AID 163);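 note: 0% = growth of vehicle-only control cultures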
# RECORDED_CONDITIONS: S. cerevisiae CLN2oe strain, at 33.0 µM, stronger effect = higher value
Compounds without any hit were thinned out: in the full panel of roughly 79,000, 15% have a hit.
# growth inhibition >= 20% gives T, anything below gives F

COMPOUND: Cc1cc(C)c(S(=O)(=O)c2ccc(Cl)cc2)c(C)c1
QUALITATIVE_LABEL: F

Hi, just wondering whether CC(C)(N=Nc1ccc(Cl)cc1)[N+](=O)[O-] shows growth inhibition of 20% or higher.
T

Hi, just wondering whether OC(c1ccccc1)(c1ccccc1)c1nccc2ccccc12 shows growth inhibition of 20% or higher.
T

Hi, just wondering whether CCCCCCCCCCCCCCCCCCNc1nc(=O)n(C2CC(OP(=O)(O)OCC3OC(n4cc(F)c(=O)[nH]c4=O)CC3O)C(CO)O2)cc1F (configuration not stated) shows growth inhibition of 20% or higher.
F

Hi, just wondering whether COc1ccc2c3c1OC(C)C31CC(=O)CCC1CC2 (configuration not stated) shows growth inhibition of 20% or higher.
F

Hi, just wondering whether Cc1ccc(S(=O)(=O)Nc2cccc3cccnc23)cc1 shows growth inhibition of 20% or higher.
T

Hi, just wondering whether Cc1cc(C)c2[s+]snc2c1 shows growth inhibition of 20% or higher.
F

---

Field: growth inhibition. Provide a value for each of the compounds that follow.
# MEASUREMENT_PROTOCOL: NCI Yeast Anticancer Drug Screen. Data for the mgt1 strain (AID 153)
# RECORDED_CONDITIONS: S. cerevisiae mgt1 mutant growth inhibition; at 3.7 µM; stronger effect = higher value
This is part of a sample that, as a whole, favours compounds with a hit. Of some 79,000 tested, about 15% had one in any assay.
Numbers only, in %.

Examples with their reported growth inhibition follow.
SMILES_DATA: COc1ccc(/C=C2\SC(=S)N(/C=C3\C(=O)N(c4ccccc4)N=C3C)C2=O)cc1OC
EXPERIMENTAL_VALUE: 3
//
SMILES_DATA: C[n+]1c(/C=C/c2ccc(/C=N/NC(=O)c3ccc(C(=O)N/N=C/c4ccc(/C=C/c5cn6ccccc6[n+]5C)cc4)cc3)cc2)cn2ccccc21
EXPERIMENTAL_VALUE: 99
//
SMILES_DATA: CNCC(C)CNC
EXPERIMENTAL_VALUE: 17
//
SMILES_DATA: Nc1ccc(N=Nc2ccc(-c3ccc(O)cc3)cc2)c2ccc(S(=O)(=O)O)cc12
EXPERIMENTAL_VALUE: 0
//
SMILES_DATA: CCOP(=O)(OCC)/C(C#N)=C/c1ccc(-c2ccc(F)cc2F)o1
EXPERIMENTAL_VALUE: -4
//
SMILES_DATA: CCC(/C=C/c1ccccc1)=N\Nc1ccc(Cl)c(Cl)c1
EXPERIMENTAL_VALUE: 4
//
SMILES_DATA: O=C(C#Cc1ccccc1)Nc1ccccc1
EXPERIMENTAL_VALUE: -10
//
SMILES_DATA: Cc1ccc(S(=O)(=O)N/N=C/C(Br)=C(/Br)C(=O)O)cc1
EXPERIMENTAL_VALUE: 48

Dear reader, for each entry below, please note its growth inhibition.
1. CCc1c(Cl)c(C)c(Cl)c(O)c1Cl
2. CCCCCCCCCCCCCCN
3. CC(C)C(c1ccccc1)c1ccccc1

1: -32; 2: 1; 3: 0
